The molecules listed here are annotated with their %Inh.
# System: p38-alpha;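 further: KINOMEscan kinase panel screen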
# Construct: gene MAPK14
# Conditions: concentration: 1 μM, replicates: in singlicate; n = 1
Outcome Measure: %Inh (%)

> print(dat)
                                    molecule  system.name  outcome.measure  unit.text  test.value
 1  Cn1cncc1-c1cc2c(Nc3ccc(OCc4ccccc4)cc3)ncnc2cn1    p38-alpha             %Inh          %           0
 2           Fc1ccc(-c2nc[nH]c2-c2ccncc2)cc1    p38-alpha             %Inh          %        97.9
 3  COc1cccc(NC(=O)Nc2ccc(C)c(-c3ccc(C(=O)Nc4ccncc4)cc3)c2)c1    p38-alpha             %Inh          %           6
 4  CNc1nc(-c2ccc3c(N)n[nH]c3c2)cc(N2C[C@@H](C(=O)NC3CCCCC3)OC[C@H]2C)n1    p38-alpha             %Inh          %          23
 5  Cc1ccccc1-c1cc(-c2c[nH]nc2-c2ccccn2)ccn1    p38-alpha             %Inh          %          85
 6  COC(=O)C(NC(=O)NC1CCN(c2ccnc(Nc3ccc(F)cc3)n2)C1)c1ccccc1 (stereo not shown)    p38-alpha             %Inh          %          12
 7  Nc1ncnc2occ(-c3ccc4c(c3)CCN4C(=O)Cc3cc(F)ccc3F)c12    p38-alpha             %Inh          %           0
 8  COc1cccc(CNC(=O)NC2CCN(c3ccnc(Nc4ccc(F)cc4)n3)C2)c1 (stereo not shown)    p38-alpha             %Inh          %           0
 9  O=C1NC(=O)C(c2ccc(Cl)cc2)=C1Nc1ccc(O)cc1    p38-alpha             %Inh          %           0
10  COc1cccc(C2=C(Nc3cc(Cl)c(O)c(Cl)c3)C(=O)NC2=O)c1    p38-alpha             %Inh          %           0
11  Nc1nccc(-c2c(-c3ccc(F)cc3)ncn2C2CCN(Cc3ccccc3)CC2)n1    p38-alpha             %Inh          %        99.7
12  CC(=O)c1c(C)c2cnc(Nc3ccn(C)n3)nc2n(C2CCCC2)c1=O    p38-alpha             %Inh          %           0
13  O=C(Nc1n[nH]c2nc(-c3cccs3)c(Br)cc12)C1CC1    p38-alpha             %Inh          %           4
14       Fc1ccc(-c2nc3n(c2-c2ccncc2)CCS3)cc1    p38-alpha             %Inh          %        98.4
15  COC(=O)C(Cc1ccccc1)NC(=O)NC1CCN(c2ccnc(Nc3ccc(F)cc3)n2)C1 (stereo not shown)    p38-alpha             %Inh          %           0
16  CC(C)c1ccc(O)cc1Nc1ccnc2ccc(C(F)(F)F)cc12    p38-alpha             %Inh          %           0
17   Cc1cccc2c(-c3ccncn3)c(-c3ccc(F)cc3)nn12    p38-alpha             %Inh          %        91.6
18  Cl.Cl.Cl.N#Cc1ccc(CCNc2nccc(-c3cccc(CN4CCNCC4)c3)n2)cc1    p38-alpha             %Inh          %           0
19               c1ccc(-c2ccnc3[nH]ccc23)cc1    p38-alpha             %Inh          %           3

Measured values drawn from paper PMC5540273 for this set.
